# ASSAY_PROCEDURE: Wnt pathway potentiators raising nuclear beta-catenin – imaging, WNT3A-conditioned medium, mouse C2C12, NPC library, primary screen (AID 1117326)
# PARTICULARS: at 10 µM
The source made the active and inactive calls. No stated cut-off is given here; in the data, active means nuclear beta-catenin stimulation mostly above about 4.2% (no sharp cut-off); inactive means mostly below about 10%.
Parameter call: string, one of 1 (active), -1 (inactive)

Study these solved cases before continuing.
{"columns": ["COMPOUND", "LABEL"],
 "data": [
  ["Cc1cc2cc3c(C)cc(=O)oc3c(C)c2o1", -1],
  ["COc1ccnc(CS(=O)c2nc3ccc(OC(F)F)cc3[nH]2)c1OC (stereo unspecified)", -1],
  ["COc1ccc(CN2CCN(C(c3ccc(F)cc3)c3ccc(F)cc3)CC2)c(OC)c1OC", -1]
]}

Ask | State the result this test recorded for Cc1ccc(C(=O)c2ccc(CC(=O)O)n2C)cc1 .
Reply | -1

Ask | Also need CN1CCN(CCCN2c3ccccc3Sc3ccc(Cl)cc32)CC1 , thanks.
Reply | -1

Ask | Queued: COc1cccc2c1C(=O)c1c(O)c3c(c(O)c1C2=O)C[C@@](O)(C(=O)CO)C[C@@H]3O[C@H]1C[C@H](N)[C@H](O)[C@H](C)O1
Reply | -1

Ask | // same read-out, input: NCCS(=O)(=O)O
Reply | -1

Ask | What about this compound? CSc1ccc2c(c1)C(N1CCN(C)CC1)Cc1ccccc1S2 (stereo unspecified)
Reply | 1

Ask | Entry Nc1ncnc2c1ncn2[C@@H]1O[C@H](COP(=O)(O)O)[C@@H](O)[C@H]1O please
Reply | -1

Ask | Now the same for C=CCc1ccccc1OCC(O)CNC(C)C (stereo unspecified)
Reply | -1

Ask | What do we get for Nc1ccc(S(=O)(=O)Nc2ccc(Cl)nn2)cc1 ?
Reply | -1

---

# ASSAY_PROCEDURE: Wnt pathway potentiators raising nuclear beta-catenin – imaging, WNT3A-conditioned medium, mouse C2C12, NPC library, primary screen (AID 1117326)
# PARTICULARS: stimulation, at 2 µM, stronger effect = higher value
MEASURE_NAME: nuclear beta-catenin stimulation

{"columns": ["COMPOUND", "MEASURE_NAME", "ENDPOINT_RESULT"],
 "data": [
  ["Cc1cc(C)cc(OCC2CNC(=O)O2)c1 (stereo not drawn)", "nuclear beta-catenin stimulation", "0.2%"],
  ["Cc1cccc(N(C)C(=S)Oc2ccc3ccccc3c2)c1", "nuclear beta-catenin stimulation", "1.3%"],
  ["CCCCN(CCCC)CCCOC(=O)c1ccc(N)cc1", "nuclear beta-catenin stimulation", "1.7%"],
  ["CCN1CCN(C(=O)N[C@@H](C(=O)N[C@@H]2C(=O)N3C(C(=O)O)=C(CSc4nnnn4C)CS[C@H]23)c2ccc(O)cc2)C(=O)C1=O", "nuclear beta-catenin stimulation", "-1.5%"],
  ["O=C1N(c2ccccc2)c2ccccc2C1(Cc1ccncc1)Cc1ccncc1", "nuclear beta-catenin stimulation", "3.8%"]
]}

Ask | Given CCC(C)n1ncn(-c2ccc(N3CCN(c4ccc(OC[C@H]5CO[C@](Cn6cncn6)(c6ccc(Cl)cc6Cl)O5)cc4)CC3)cc2)c1=O (stereo partly drawn) , state its recorded nuclear beta-catenin stimulation.
Reply | 34.3%

Ask | Cool, now CC(C)(C)NC(=O)[C@@H]1CN(Cc2cccnc2)CCN1C[C@@H](O)C[C@@H](Cc1ccccc1)C(=O)N[C@H]1c2ccccc2C[C@H]1O
Reply | 1.7%

---

# ASSAY_PROCEDURE: growth inhibition of DIPG cells – cell-based, MIPE4.0 library, CellTiter-Glo luminescence, qHTS (AID 1347066);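 further: cells exposed to compound for 48 hours before readout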
# PARTICULARS: SU-DIPG-VI viability, CellTiter-Glo ATP luminescence
Records with an inconclusive call do not appear. Activity calls are given as the source filed them. Cut-off not given; nearly all actives show AC50 up to about 30 µM.
MEASURE_NAME: AC50

{"columns": ["COMPOUND", "AC50"],
 "data": [
  ["COc1ccccc1N1CCN(CC(O)COc2cccc3ccccc23)CC1 (stereo unspecified)", "inactive"],
  ["Cc1ncc([N+](=O)[O-])n1CCO", "inactive"],
  ["O=C(O)CCNC(=O)c1ccc(N=Nc2ccc(O)c(C(=O)O)c2)cc1", "inactive"],
  ["C[C@]12CC[C@@H]3c4ccc(O)cc4CC[C@H]3[C@@H]1C[C@@H](O)[C@@H]2O", "inactive"],
  ["CC(C)(C)NC(=O)[C@@H]1CN(Cc2cccnc2)CCN1C[C@@H](O)C[C@@H](Cc1ccccc1)C(=O)N[C@H]1c2ccccc2C[C@H]1O", "20.9 µM (active)"]
]}

Ask | For Clc1ccc(C(c2ccccc2Cl)C(Cl)Cl)cc1 (stereo unspecified) , what is its reported AC50?
Reply | 23.5 µM (active)

Ask | Entry to check: Nc1nnc(-c2cccc(Cl)c2Cl)c(N)n1
Reply | inactive

Ask | Next: CC(C)(Sc1cc(C(C)(C)C)c(O)c(C(C)(C)C)c1)Sc1cc(C(C)(C)C)c(O)c(C(C)(C)C)c1
Reply | inactive

Ask | What do you get for Nc1nc(N)nc(-c2cc(Cl)ccc2Cl)n1 ?
Reply | inactive

Ask | Now this one: CCn1cc(C(=O)O)c(=O)c2cc(F)c(N3CCNC(C)C3)c(F)c21 (stereo unspecified)
Reply | inactive

Ask | Next entry: CN1CCC(=C2c3ccccc3CC(=O)c3sccc32)CC1
Reply | inactive

---

# ASSAY_PROCEDURE: EMT-state selective cytotoxicity in co-culture – imaging, PC-3E GFP, TEM4-18 mCherry, primary screen (AID 1345086);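 further: cells exposed to compound for 72 h before imaging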
# PARTICULARS: PC-3E GFP / TEM4-18 mCherry co-culture, imaging cell counts; measured here: mesenchymal TEM4-18 mCherry cell survival; at 1 µM
// reported normalised cell number per item
Lab note: record the figure alone, no unit after it.

Worked cases, answers included:
{"columns": ["MOLECULE", "normalised cell number"],
 "data": [
  ["CN1CCCN=C1COC(=O)C(O)(c1ccccc1)C1CCCCC1 (configuration not stated)", 1.43],
  ["Cc1ccc(C(C)C)cc2c(C)ccc1-2", 0.92],
  ["COC(=O)N/N=C/c1c[n+]([O-])c2ccccc2[n+]1[O-]", 0.81],
  ["O=C(O)CCC(=O)Nc1ccc(S(=O)(=O)Nc2nccs2)cc1", 1.13],
  ["COc1cc(NS(=O)(=O)c2ccc(N)cc2)ncn1", 0.86],
  ["CN(C)CCCN1c2ccccc2Sc2ccc(C(F)(F)F)cc21", 1.17]
]}

Ask | I would be grateful if you could share the reported normalised cell number for O=c1ccc2ccccc2o1 .
Reply | 1.1

Ask | Here is the next molecule: COc1cc([C@H]2Oc3cc([C@H]4Oc5cc(O)cc(O)c5C(=O)[C@@H]4O)ccc3O[C@@H]2CO)ccc1O
Reply | 0.88

Ask | Further, for NC1CCN(c2nc3c(cc2F)c(=O)c(C(=O)O)cn3-c2ccc(F)cc2F)C1 (configuration not stated) ?
Reply | 1.02

Ask | Queued: COc1ccc(CCN2CCC(Nc3nc4ccccc4n3Cc3ccc(F)cc3)CC2)cc1
Reply | 1.11

Ask | One more molecule: Nc1ccc(O)c(C(=O)O)c1
Reply | 1.24

Ask | Can you check CCOC(=O)c1ccc(N)cc1 next?
Reply | 1.31

---

Listed here: items and their measured viability decrease (inhibition).
# ASSAY_PROCEDURE: reduced SW480 viability measured with CellTiter-Glo, NPC library, primary (AID 1117343)
# PARTICULARS: CellTiter-Glo luminescence; at 20 µM (top of the series)
Activity calls are given as the source filed them.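 Rule for the calls: active = compounds that lower viability of the colon cancer cells in the luminescence readout, with no numeric limit stated; inactive = the rest.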

{"columns": ["MOLECULE", "ENDPOINT_RESULT"],
 "data": [
  ["Cc1nccn1CC1CCc2c(c3ccccc3n2C)C1=O (centres undefined)", "-3.2% (inactive)"],
  ["O=c1cc[nH]c(=S)[nH]1", "-9.6% (inactive)"],
  ["CCOC(=O)C1=C[C@]2(CC)CCCN3CCc4c(n1c1ccccc41)[C@@H]32", "61.3% (active)"],
  ["N#Cc1ccc(C(c2ccc(C#N)cc2)n2cncn2)cc1", "-2.1% (inactive)"],
  ["COc1ccc(CN(CCN(C)C)c2ccccn2)cc1", "22.5% (inactive)"]
]}

Ask | Give its viability decrease (inhibition) value. Item: Nc1ccn([C@H]2CC[C@@H](CO)O2)c(=O)n1
Reply | -0.9% (inactive)

---

# ASSAY_PROCEDURE: growth inhibition of GSK3B-pretreated HCT116 cells – cell-based, CellTiter-Glo, 0.2 to 20 µM (AID 1117336)
# PARTICULARS: HCT116 viability after GSK3B inhibitor, at 20 µM, stronger effect = higher value
MEASURE_NAME: viability decrease (%)
Please state the figure in %; there is no need to write the unit.

The cases that follow already have their viability decrease on record.
{"columns": ["COMPOUND", "viability decrease, %"],
 "data": [
  ["Cc1c(O)cccc1C(=O)N[C@@H](CSc1ccccc1)[C@H](O)CN1C[C@H]2CCCC[C@H]2C[C@H]1C(=O)NC(C)(C)C", 117],
  ["Cc1[nH]c(=O)c(C#N)cc1-c1ccncc1", -19.7],
  ["NC(CO)C(=O)NNCc1ccc(O)c(O)c1O (stereo unspecified)", 55.6],
  ["Nc1ccc(S(=O)(=O)Nc2cnc3ccccc3n2)cc1", 21],
  ["Oc1ccc(OCc2ccccc2)cc1", -36.6],
  ["CC1CC(OC(=O)C(O)c2ccccc2)CC(C)(C)N1C (stereo unspecified)", 3.6]
]}

Ask | Item COc1ncnc(NS(=O)(=O)c2ccc(N)cc2)c1OC has what recorded viability decrease?
Reply | -6.5

Ask | Likewise for Cc1[nH]c(C)c(Cl)c(=O)c1Cl ?
Reply | 10.2

Ask | Now consider CCN1CCN(C(=O)N[C@@H](C(=O)N[C@@H]2C(=O)N3C(C(=O)O)=C(CSc4nnnn4C)CS[C@H]23)c2ccc(O)cc2)C(=O)C1=O .
Reply | 6.1

Ask | What about CC(C)(C)CC(C)(C)c1ccc(O)c(Cc2ccc(Cl)cc2Cl)c1 ?
Reply | 99.3

Ask | Repeat with CN1CCN(c2c(F)cc3c(=O)c(C(=O)O)cn4c3c2SCC4)CC1
Reply | 19.8
